These measurements were taken from ChEMBL document CHEMBL5523702.

Reported Cmax is given for each of the following molecules.
# ASSAY OVERVIEW: Cmax in dog at 2 mg/kg, po
# Type: ADME, organism-based, Canis lupus familiaris
# RUN PARAMETERS: in vivo
MEASURED ATTRIBUTE: Cmax (µg/mL)

CC(C)CCN[C@@H]1CCc2cc(O)c(N3CC(=O)NS3(=O)=O)c(F)c2C1    0.067
CCN1CCc2cc(O)c(N3CC(=O)NS3(=O)=O)c(F)c2CC1    0.402

====

# ASSAY OVERVIEW: Oral bioavailability in dog at 2 mg/kg
# Format: ADME, organism-based, Canis lupus familiaris
# RUN PARAMETERS: in vivo
MEASURED ATTRIBUTE: bioavailability (%)

CC(C)CCN[C@@H]1CCc2cc(O)c(N3CC(=O)NS3(=O)=O)c(F)c2C1 [OSUNPROTAFIB]    6
CCN1CCc2cc(O)c(N3CC(=O)NS3(=O)=O)c(F)c2CC1    19
